Target: T1, recombinant purified human RGM A (human, UniProt Q96B86 48-424, limits assumed)
T1 construct: Bought recombinant protein (R&D Systems); also called hRGM A; hRGMA
T1 sequence: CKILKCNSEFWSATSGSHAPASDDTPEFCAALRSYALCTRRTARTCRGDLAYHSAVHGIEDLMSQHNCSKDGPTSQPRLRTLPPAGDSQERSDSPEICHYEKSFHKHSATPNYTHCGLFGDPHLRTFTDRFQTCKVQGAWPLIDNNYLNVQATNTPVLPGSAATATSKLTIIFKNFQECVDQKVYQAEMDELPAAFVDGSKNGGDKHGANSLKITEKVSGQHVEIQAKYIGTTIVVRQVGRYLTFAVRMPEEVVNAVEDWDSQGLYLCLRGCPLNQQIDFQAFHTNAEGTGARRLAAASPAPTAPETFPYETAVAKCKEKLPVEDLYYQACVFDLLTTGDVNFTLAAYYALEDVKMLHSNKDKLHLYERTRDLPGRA
Assay: SPR (Biacore 3000), antibody captured by anti-human IgG Fc, hRGMA in solution, 25 °C
property measured: kon (M⁻¹ s⁻¹)
I only need the number, in M⁻¹ s⁻¹, no unit after it.

1. humanized antibody h5F9.25 (antibody, V domains shown) VH: EVQLVESGGGLVQPGGSLRLSCAASGFTFSNYGMNWIRQAPGKGLEWIGMIYYDSSEKHYADSVKGRFTISRDNSKNTLYLQMNSLRAEDTAVYYCAKGTTPDYWGQGTMVTVSS VL: DVVLTQSPLSLPVTLGQPASISCRSSQSLEYSDGYTFLEWFLQKPGQSPQLLIYEVSNRFSGVPDRFSGSGSGTDFTLKISRVEAEDVGVYYCFQATHDPLTFGQGTKLEIKR; 570000
2. humanized antibody h5F9.23 (antibody, V domains shown) VH: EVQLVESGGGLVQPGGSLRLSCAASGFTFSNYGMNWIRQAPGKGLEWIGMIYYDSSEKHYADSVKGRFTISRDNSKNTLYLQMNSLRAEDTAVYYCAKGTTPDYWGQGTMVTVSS VL: DVVLTQSPLSLPVTLGQPASISCRSSQSLEYSDGYTFLEWFQQRPGQSPRLLIYEVSNRFSGVPDRFSGSGSGTDFTLKISRVEAEDVGVYYCFQATHDPLTFGQGTKLEIKR; 507000
3. chimeric 5F9 (antibody, V domains shown, also called chimeric human-rat 5F9; biotinylated chimeric 5F9) VH: EVQLVESGGGLVQPGSSLKLSCVASGFTFSNYGMNWIRQAPKKGLEWIGMIYYDSSEKHYADSVKGRFTISRDNSKNTLYLEMNSLRSEDTAIYYCAKGTTPDYWGQGVMVTVSS VL: DVVLTQTPVSLSVTLGDQASMSCRSSQSLEYSDGYTFLEWFLQKPGQSPQLLIYEVSNRFSGVPDRFIGSGSGTDFTLKISRVEPEDLGVYYCFQATHDPLTFGSGTKLEIKR; 765000

Now examine the next entry.
Can you look up the measured kon of humanized antibody h5F9.21 (antibody, V domains shown) VH: EVQLVESGGGVVQPGRSLRLSCAASGFTFSNYGMNWIRQAPGKGLEWIGMIYYDSSEKHYADSVKGRFTISRDNSKNTLYLQMNSLRAEDTAVYYCAKGTTPDYWGQGTMVTVSS VL: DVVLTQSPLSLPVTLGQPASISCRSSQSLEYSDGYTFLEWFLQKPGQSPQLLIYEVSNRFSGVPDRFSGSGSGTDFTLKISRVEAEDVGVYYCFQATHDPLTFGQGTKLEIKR for me? 355000
